Data origin: patent US20220396627A1

target: T1, Human SIGLEC7; assay: ELISA: plate coated with 1 ug/mL human Siglec-7-Fc, antibody at 100 nM, HRP anti-mouse Fc secondary, RLU
T1 construct: also called human Siglec-7-Fc
T1 sequence (Fc fusion chain, as listed by the source): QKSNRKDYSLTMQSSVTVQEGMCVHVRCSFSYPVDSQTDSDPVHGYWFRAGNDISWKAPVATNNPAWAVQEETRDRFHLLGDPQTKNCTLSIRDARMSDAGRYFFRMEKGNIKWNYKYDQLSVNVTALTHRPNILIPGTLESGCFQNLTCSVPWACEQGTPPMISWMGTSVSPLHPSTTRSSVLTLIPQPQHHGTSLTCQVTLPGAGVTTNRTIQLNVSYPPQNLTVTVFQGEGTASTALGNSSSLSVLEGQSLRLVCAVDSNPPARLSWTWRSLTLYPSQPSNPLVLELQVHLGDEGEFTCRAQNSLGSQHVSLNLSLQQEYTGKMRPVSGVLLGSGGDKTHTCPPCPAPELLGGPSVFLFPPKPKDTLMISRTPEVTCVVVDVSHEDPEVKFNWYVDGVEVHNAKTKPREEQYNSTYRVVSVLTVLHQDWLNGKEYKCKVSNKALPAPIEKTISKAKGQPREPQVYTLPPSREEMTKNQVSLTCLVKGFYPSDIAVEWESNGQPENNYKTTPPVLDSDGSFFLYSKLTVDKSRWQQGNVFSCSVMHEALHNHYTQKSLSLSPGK

# binder, binding result
rows = [
    ("9D21 (antibody, V domains shown) VH: QVQLKESGPGLVAPSQSLSITCTVSGFSLTRYGVSWVRQPPGKGLEWLGVIWGDGSTNYHSALISRLSISKDNSKSQVFLKLNSLQTDDTATYYCARPYYGFFDYWGQGTTLTVSS VL: SIVMTQTPKFLLVSAGDRVTITCKASQSVSNAVAWYQQKPGQSPKMLIYYASNRYTGVPDRFTGSGYGTDFTFTISTVQAEDLAVYFCQQDYSSPYTFGGGTKLEIK", "binds"),
]
